# Tested on: BT-549
# Test Description: NCI tumour cell line growth inhibition, 48 h
Active and inactive are the calls of the source. Cut-off read from the data, not from the text of the source: active = GI50 up to about 1.1 µM and inactive = higher.
Would you kindly list GI50 for each of these molecules?

Return reported GI50 values for all items listed beneath this line.
1. COc1cccc(/C=C2/Sc3scc(-c4ccccc4)[n+]3C2=O)c1O
2. COc1ccc2c(c1)CC[C@@H]1[C@@H]2CC[C@]2(C)/C(=N/OCCN3CCCCC3)CC[C@@H]12
3. Cc1ccc(S(=O)(=O)N(CCN)c2cc3c4c(c2)Oc2cccc5c2C4c2c(cccc2O3)O5)cc1
4. O=C(Cc1ccccc1)c1ccc2[nH]c(=O)oc2c1
5. O=C1c2ccc3cc(CCl)cc(O)c3c2C(=O)c2cccc(O)c21

Result:
1. 21.7 µM (inactive)
2. 12.8 µM (inactive)
3. 47.2 µM (inactive)
4. 48.6 µM (inactive)
5. > 10 µM (inactive)

Return reported GI50 values for all items listed beneath this line.
1. Cc1n[nH]c(=O)n1/N=C/c1cccc(Cl)c1
2. NCCN/C(=N\c1ccccc1)Nc1ccccc1
3. CN(CCNC(=O)c1c[nH]c2c1Cc1ccccc1-2)CCNC(=O)c1c[nH]c2c1Cc1ccccc1-2
4. Cc1nc(C)c(C(=O)NNC(=O)c2ccccc2)cc1C(=O)NNC(=O)c1ccccc1
5. CCCC1CCC(=C2C(=O)CCC2=O)O1 (configuration not stated)
6. CCCCCC(=O)N[C@@H](c1ccccc1)C(O)C(=O)OC1C[C@@]2(O)C(OC(=O)c3ccccc3)C3[C@](C)(C(=O)[C@H](O)C(=C1C)C2(C)C)C(OC1OCC(O)C(O)C1O)C[C@H]1OC[C@@]31OC(C)=O (some centres not stated)
7. CNC(=O)/C=C/C1=CN2C(=O)c3ccc(C)c(O)c3NC(OC)C2C1 (configuration not stated)

Result:
1. 47.2 µM (inactive)
2. > 100 µM (inactive)
3. 36.6 µM (inactive)
4. > 100 µM (inactive)
5. > 100 µM (inactive)
6. 2.62 µM (inactive)
7. < 0.01 µM (active)

###

# Tested on: K562
# Test Description: NCI tumour cell line growth inhibition, 48 h
Activity calls are given as the source filed them. Cut-off read from the data, not from the text of the source: active = GI50 up to about 1.1 µM and inactive = higher.
Return exactly one item of active, inactive

Some solved cases for reference:
>>> class_name("Oc1ccccc1/C=N/c1ccc(-c2nc3ccccc3s2)cc1")
"inactive"
>>> class_name("CC1CCC2(CC1)NN=c1s/c(=C\\c3ccc(O)cc3)c(=O)n1N2 (stereo not given)")
"inactive"
>>> class_name("O=C(/C=C(\\Nc1ccccc1O)c1ccccc1)C(=O)NC12CC3CC(CC(C3)C1)C2")
"inactive"

Q: Which result was noted for this compound in the test: COc1ccc(/C=C2\CCCC(CN(C)C)C2=O)cc1 (stereo not given)
Result: inactive

Q: Hey, what did the test say about C=C(O)c1ccccc1C#Cc1ccccc1C(=O)OC ?
Result: inactive

Q: Returns: the outcome recorded for COc1ccc(/C=C/c2cc(OC)c(O[Si](C)(C)C(C)(C)C)c(OC)c2)cc1 in this assay.
Result: inactive

Q: # fetch the recorded call for CCCCCCCCCCCCCCCCCCOCC(COP(=O)([O-])OCC[N+](C)(C)C)OC (stereo not given) [EDELFOSINE] here
Result: inactive

Q: Give the logged outcome of this assay for the following compound: COc1ccc(/C=C2\CN(C)Cc3c2nc(N)nc3-c2ccc(OC)cc2)cc1
Result: inactive

Q: Please state the recorded outcome for this compound: C=C1CC(Cn2cc(C)c(=O)[nH]c2=O)(c2ccc(-c3ccccc3)cc2)OC1=O (stereo not given)
Result: active

Q: Please indicate how the test categorized Cn1/c(=N\N=C2\C=C3CCCCC3(C)CC2)sc2ccccc21 (stereo not given) .
Result: inactive

###

Would you kindly list GI50 for each of these molecules?
# Test system: SN12C
# Test Description: NCI tumour cell line growth inhibition, 48 h
Calls of active or inactive are those of the source. No stated cut-off is given here; in the data, active = GI50 up to about 1.1 µM and inactive = higher.

>>> result("COc1ccc(C2CC(C)=Nc3c(O)nc(S)nc3N2)cc1 (stereo not given)")
"19.4 µM (inactive)"
>>> result("COC(=O)C1=NN2c3ccccc3CN([C@@H](C)c3ccccc3)C(=O)[C@H]2[C@@H]1C")
"70.6 µM (inactive)"
>>> result("CCCC1(CC(=O)O)OCCc2c1[nH]c1ccccc21 (stereo not given)")
"> 100 µM (inactive)"
>>> result("CCOC(=O)/C(Br)=C1/OC(=O)c2ccccc2-c2ccccc21.CCOC(=O)/C(Br)=C1\\OC(=O)c2ccccc2-c2ccccc21")
"22.8 µM (inactive)"

Please report GI50 for every entry that follows.
1. [O-]c1c2c(nn1-c1ccc(F)cc1)c1ccccc1c[n+]2Cc1ccccc1
2. C[n+]1cn(-c2nc3ccccc3nc2[N-]S(=O)(=O)c2ccccc2)c2ccccc21
3. C=C1CC2CCCC12C=O (stereo not given)
4. Cc1nn(-c2nc3ccccc3s2)c2c1C(=O)c1ccccc1-2
5. COc1cc([C@H]2OC[C@H]3[C@@H]2CO[C@@H]3c2cc(OC)c3c(c2)OCO3)cc(OC)c1OC
6. O=C(/C=C(\Nc1ccccc1O)c1ccccc1)C(=O)NC12CC3CC(CC(C3)C1)C2

Result:
["16.4 µM (inactive)", "> 100 µM (inactive)", "> 10 µM (inactive)", "> 100 µM (inactive)", "96.8 µM (inactive)", "> 10 µM (inactive)"]

###

# System: HOP-92
# Test Description: NCI tumour cell line growth inhibition, 48 h
Calls of active or inactive are those of the source. Rule as the data show it: active = GI50 up to about 1.1 µM and inactive = higher.
Quantity: GI50

>>> result("COC(=O)C1=NN2c3ccccc3CN([C@@H](C)c3ccccc3)C(=O)[C@H]2[C@@H]1C")
"44.7 µM (inactive)"
>>> result("c1ccc2c3c([nH]c2c1)C1c2[nH]c4ccccc4c2CCN1CC3")
"2.03 µM (inactive)"
>>> result("Cc1cc(N(CCC#N)CCC#N)ccc1/C=C1\\SC(=S)NC1=O")
"36.4 µM (inactive)"

Could you report GI50 for every entry in the following list?
1. COc1ccc2c(c1)CC[C@@H]1[C@@H]2CC[C@]2(C)/C(=N/OCCN3CCCC3)CC[C@@H]12
2. N#CCc1nc(Cc2ccccc2)n[nH]1
3. CCOC(=O)/N=C(\N)SCc1ccccc1
4. O=C(c1ccccc1)c1nnn(Cc2cccc(Cl)c2)c1C(=O)c1ccccc1
5. CCN(CC)c1ccc(/C=C/c2ccnc3ccccc23)cc1
6. CC(C)/C=N\n1c(N)c(C#N)c(C#N)c1C(C)C

Result:
1: 2.49 µM (inactive); 2: > 100 µM (inactive); 3: > 100 µM (inactive); 4: > 100 µM (inactive); 5: > 100 µM (inactive); 6: 13 µM (inactive)

// each listed molecule needs a value for GI50
1. CCC[N+](C)(C)CCCNC(=O)c1c(O)c2ccccc2[nH]c1=O
2. O=C(O)CNCP(=O)(O)O [GLYPHOSATE]
3. CC1OC(Oc2c(-c3cc(O)c(O)c(O)c3)oc3cc(O)cc(O)c3c2=O)C(O)C(O)C1O (configuration not stated)
4. NCCC1([N+](=O)[O-])C=CN=CC1 (configuration not stated)
5. C#Cc1ccccc1C(=O)OC
6. COC(=O)N/N=C(/c1nc2ccc([N+](=O)[O-])cc2nc1O)C(O)c1ccc(OC)c(OC)c1 (configuration not stated)
7. CC1(C)CC(=O)C(=CNC(=O)c2ccncc2)C(=O)C1

Result:
1: > 100 µM (inactive); 2: > 100 µM (inactive); 3: > 100 µM (inactive); 4: < 0.01 µM (active); 5: > 100 µM (inactive); 6: > 100 µM (inactive); 7: > 100 µM (inactive)

# NS(=O)(=O)c1cc(Br)c(/N=N\c2ccc(O)c3ncccc23)c(Br)c1 with HOP-92: GI50 is 41.8 µM (inactive)

###

# Test system: COLO 205
# Test Description: NCI tumour cell line growth inhibition, 48 h
Active and inactive are the calls of the source. No stated cut-off is given here; in the data, active = GI50 up to about 1.1 µM and inactive = higher. Where a SMILES comes first, the peptide text is derived from it. The star is where a group is joined. Boc = CC(C)(C)OC(=O)*
Quantity: GI50

Sample records with GI50:
>>> result("CCOC(=O)/C(Br)=C1/OC(=O)c2ccccc2-c2ccccc21.CCOC(=O)/C(Br)=C1\\OC(=O)c2ccccc2-c2ccccc21")
"15.2 µM (inactive)"
>>> result("NS(=O)(=O)c1ccc(NNc2c3ccccc3nc3c(C(=O)Nc4ccc(S(=O)(=O)Nc5ncccn5)cc4)cccc23)cc1")
"> 25 µM (inactive)"
>>> result("COc1ccc(C2Oc3ccc(O)cc3[C@@H]2C)cc1OC (some centres not stated)")
"> 100 µM (inactive)"
>>> result("CCOC(=O)C1=C(O)C2C3CC4C2C(O)=C(C(=O)OCC)C2C1C3C42 (configuration not stated)")
"> 100 µM (inactive)"
>>> result("Cn1cnc2c1c(=O)n(CCNCCO)c(=O)n2C")
"> 100 µM (inactive)"

Field: GI50. Fill in for each record below.
1. CCC1CN(C(=O)c2ccccc2)C(Cc2c[nH]c3ccccc23)C(=O)C1CC(=O)OC (configuration not stated)
2. CC(C)Oc1c(-c2c(OC(C)C)c(=O)c2=O)c(=O)c1=O
3. O=c1[nH]c(=O)n(C2CC(O)C(CO)O2)cc1C#Cc1ccc(C(F)(F)F)cc1 (configuration not stated)
4. O=C1O/C(=C\C=C\CO)C=C1/C=C/CO [LISSOCLINOLIDE]
5. OCCNCNc1nc(NCNCCO)nc(N(CNCCO)CNCCO)n1
6. O=[N+]([O-])c1ccc(/C=C/c2ccc(/N=N/c3ccc(/C=C/c4ccc([N+](=O)[O-])cc4S(=O)(=O)O)c(S(=O)(=O)O)c3)cc2S(=O)(=O)O)c(S(=O)(=O)O)c1
7. CC(C)=CC1CC(=[N+]=[N-])C(=O)C1(C)C (configuration not stated)

Result:
1: > 100 µM (inactive); 2: > 29.7 µM (inactive); 3: > 100 µM (inactive); 4: 2.23 µM (inactive); 5: 15.7 µM (inactive); 6: > 100 µM (inactive); 7: > 100 µM (inactive)

Below are 8 compounds. Give each one its GI50.
1. COc1ccc(Br)c2c1CC(C(=O)O)CC2 (configuration not stated)
2. CNC(=S)N(C)C(=S)Nn1c(=O)c(C)nn(C)c1=S
3. O=C(O)CNCP(=O)(O)O [GLYPHOSATE]
4. O=C1C=C(Nc2ccc(Cl)cc2C(=O)c2ccccc2)c2ccccc2C1=O
5. CCN(CC)c1ccc(/C=C/c2ccnc3ccccc23)cc1
6. CC(NC(=O)C1CCCN1C(=O)CNC(=O)OC(C)(C)C)C(=O)O (stereo not drawn) (Boc-Gly-Pro-Ala-OH; configuration not given here)
7. O=NN1C(c2ccccc2)C2CCCC(C2=O)C1c1ccccc1 (configuration not stated)
8. CCOC(=O)O/C(=C\c1ccc(OC)cc1)c1c(OC(=O)OCC)n(C(=O)OCC)c2ccccc12

Result:
1: > 100 µM (inactive); 2: > 100 µM (inactive); 3: > 100 µM (inactive); 4: > 100 µM (inactive); 5: > 100 µM (inactive); 6: > 100 µM (inactive); 7: 17.5 µM (inactive); 8: > 100 µM (inactive)

Field: GI50. Fill in for each record below.
1. CN(CC(=O)O)Cc1oc(CO)cc(=O)c1O
2. CC[n+]1c(-c2ccccc2)c2cc(N)ccc2c2ccc(N)cc21
3. S=C(N1CCN(c2ccccc2)CC1)N1CCN(c2ccccc2)CC1
4. N#CCc1nc(Cc2ccccc2)n[nH]1

Result:
> 100 µM (inactive)
2.12 µM (inactive)
> 100 µM (inactive)
> 100 µM (inactive)

Report GI50 for every entry below.
1. O=C(Nc1ccccc1-c1n[nH]c(S)nc1=O)C(F)(F)F
2. O=C1CC2C(=O)C1C(C(=O)O)C2C(=O)O (configuration not stated)
3. CSc1nc2c(ncn2C2OC(CO)C(O)C(O)C2O)c(=O)n1C (configuration not stated)
4. ON[C@H]1C[C@@H](n2cnc3c(NC4CC4)ncnc32)[C@H](O)[C@@H]1O
5. O=S(=O)(SC1=NCCN1)c1cccc2ccccc12
6. COC(=O)c1c(-c2ccccc2)cc2c3cc(-c4ccccc4)c(C(=O)OC)n3c3ccccc3n12
7. CCOC(=O)C1C=C2O[C@@H]3OC4(CCCCC4)O[C@@H]3C2[C@H]2C(=O)C=CC(=O)[C@@]12C(=O)OC (some centres not stated)
8. O=C1c2ccccc2-c2nnc(-c3ccc(Cl)cc3)cc21

Result:
1: > 100 µM (inactive); 2: > 100 µM (inactive); 3: > 100 µM (inactive); 4: > 100 µM (inactive); 5: 17.8 µM (inactive); 6: > 100 µM (inactive); 7: 8.61 µM (inactive); 8: > 10 µM (inactive)
